Below: a set of entries, each annotated with reported IC50.
Target Or System: RORc ligand binding domain (Homo sapiens, UniProt P51449)
Construct: host or cells: E. coli
Sequence (P51449 269-508 limits assumed): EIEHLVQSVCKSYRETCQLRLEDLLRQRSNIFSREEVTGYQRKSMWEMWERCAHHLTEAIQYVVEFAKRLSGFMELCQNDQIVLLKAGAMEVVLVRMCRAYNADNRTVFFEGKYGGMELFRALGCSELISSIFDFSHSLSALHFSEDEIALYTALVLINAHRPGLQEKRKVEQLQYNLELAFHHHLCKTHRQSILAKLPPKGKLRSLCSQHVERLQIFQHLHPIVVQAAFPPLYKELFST
Assay Comment: In vitro RORc ligand binding assay (25-[3H]hydroxycholesterol displacement, filter binding)
Experimental Parameters: 6 nM 25-[3H]hydroxycholesterol, 0.6 ug/mL RORc receptor, 3 h at 25° C.

>  <Structure Smiles>
CC(=O)OCCN(C[C@@]12CC[C@@H](c3cc(-c4c(F)cccc4F)nnc31)C2(C)C)C(C)=O

>  <Val>
121 nM

$$$$
>  <Structure Smiles>
CC1(C)[C@@H]2CC[C@@]1(C(=O)N1C3CCC1CC3)c1nnc(-c3c(F)cccc3F)cc12

>  <Val>
1110 nM

$$$$
>  <Structure Smiles>
CN(C)[C@@H]1CCN(C(=O)[C@]23CC[C@H](c4cc(-c5c(F)cccc5F)nnc42)C3(C)C)C1

>  <Val>
707 nM

$$$$

We next turn to a different compound, shown below.
[ask] Given the compound CN(C(=O)OC(C)(C)C)[C@@]12CC[C@@H](c3cc(-c4c(F)cccc4F)nnc31)C2(C)C , write its reported IC50.
[reply] 218 nM
